Target: Reg1_301-599 (amino acids 301-599 of human Regnase-1) phosphorylation by IKKβ (Homo sapiens)
Sequence (Q5D1E8 301-599): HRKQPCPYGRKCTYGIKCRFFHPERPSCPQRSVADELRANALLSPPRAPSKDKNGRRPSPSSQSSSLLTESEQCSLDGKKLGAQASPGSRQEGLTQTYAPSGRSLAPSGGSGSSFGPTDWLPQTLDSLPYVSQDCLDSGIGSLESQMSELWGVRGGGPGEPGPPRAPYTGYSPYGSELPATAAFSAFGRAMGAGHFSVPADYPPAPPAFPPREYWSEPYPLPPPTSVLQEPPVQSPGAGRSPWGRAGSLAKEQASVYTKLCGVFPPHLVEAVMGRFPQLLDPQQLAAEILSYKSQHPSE
pIC50: −log10 of the molar value. Residues, ends and D or L forms follow the SMILES beside them.

{"columns": ["COMPOUND", "pIC50"],
 "data": [
  ["CC[C@H](C)[C@@H]1NC(=O)[C@H](Cc2c[nH]c3ccccc23)NC(=O)[C@H](CO)NC(=O)[C@H](Cc2c[nH]c3ccccc23)NC(=O)[C@H](C(C)C)NC(=O)CNC(=O)[C@H](Cc2ccccc2)NC(=O)[C@H](CCCNC(=N)N)NC(=O)[C@H](C)N(C)C(=O)C[C@@H](C(=O)N2CCCC2)NC(=O)[C@@H]2CCCN2C(=O)[C@H](Cc2ccc(O)cc2)NC1=O [PP14] (HELM PEPTIDE1{[meA].R.F.G.V.W.S.W.I.Y.P.D.[C1CCN([*:1])C1]}$PEPTIDE1,PEPTIDE1,1:R1-12:R3$$$V2.0)", 5.19]
]}
